Reference for the values: patent US20230270773A1

- test: Compound A levels in plasma after dosing of mice
- Assay type: in vivo, C57BL/6 mice
- condition set: C57BL/6, mouse, plasma; 15 minutes after injection; subcutaneous, intramuscular or intravenous; read-out: Compound A level in plasma
quantity kind: concentration at 15 minutes

# compound Nc1nc2c(ncn2[C@@H]2O[C@@H]3COP(=O)(O)OC4C(O)[C@H](n5cnc6c(N)ncnc65)O[C@@H]4COP(=O)(O)OC2C3OCC(F)(F)F)c(=O)[nH]1 (stereo partly shown) [Compound A] ; its concentration at 15 minutes = 5 to 15 µM

====

- test: Pharmacokinetics in mice, subcutaneous vs intravenous
- condition set: mouse, in vivo; mice; read-out: volume of distribution (Vss)
quantity kind: Vd (L/kg)
Return type: number; implicit unit L/kg.

# compound Nc1nc2c(ncn2[C@@H]2O[C@@H]3COP(=O)(O)OC4C(O)[C@H](n5cnc6c(N)ncnc65)O[C@@H]4COP(=O)(O)OC2C3OCC(F)(F)F)c(=O)[nH]1 (stereo partly shown) ; its Vd = 0.255

====

- test: Metabolic stability in in vitro systems
- Type: in vitro ADME, and monkey
- condition set: human, rat, mouse, dog, monkey
quantity kind: half-life

# molecule Nc1nc2c(ncn2[C@@H]2O[C@@H]3COP(=O)(O)OC4C(O)[C@H](n5cnc6c(N)ncnc65)O[C@@H]4COP(=O)(O)OC2C3OCC(F)(F)F)c(=O)[nH]1 (stereo partly shown) [Compound A] ; its half-life = > 2 h

====

- test: Protein binding in vitro
- Type: in vitro ADME
- condition set: human
quantity kind: fraction unbound
The response must contain the number and no unit.

# molecule Nc1nc2c(ncn2[C@@H]2O[C@@H]3COP(=O)(O)OC4C(O)[C@H](n5cnc6c(N)ncnc65)O[C@@H]4COP(=O)(O)OC2C3OCC(F)(F)F)c(=O)[nH]1 (stereo partly shown) ; its fraction unbound = 0.511
